Where do these numbers come from? They come from patent US20250136722A1.

# target-or-system: human alpha1 nicotinic acetylcholine (nACh) receptor (Homo sapiens, UniProt P02708+Q07001)
# Sequence (P02708 21-457): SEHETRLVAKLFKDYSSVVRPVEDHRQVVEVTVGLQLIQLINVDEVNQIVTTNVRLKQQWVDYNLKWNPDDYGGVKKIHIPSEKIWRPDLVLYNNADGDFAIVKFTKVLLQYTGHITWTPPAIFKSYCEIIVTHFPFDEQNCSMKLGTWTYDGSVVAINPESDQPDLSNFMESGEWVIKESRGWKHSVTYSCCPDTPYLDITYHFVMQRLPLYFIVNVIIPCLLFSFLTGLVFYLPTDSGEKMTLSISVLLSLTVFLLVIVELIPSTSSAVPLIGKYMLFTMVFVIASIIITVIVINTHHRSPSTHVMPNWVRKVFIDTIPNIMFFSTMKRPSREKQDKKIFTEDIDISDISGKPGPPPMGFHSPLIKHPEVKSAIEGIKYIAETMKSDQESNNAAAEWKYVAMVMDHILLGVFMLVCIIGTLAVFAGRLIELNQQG
# Sequence (P11230 24-501 partner): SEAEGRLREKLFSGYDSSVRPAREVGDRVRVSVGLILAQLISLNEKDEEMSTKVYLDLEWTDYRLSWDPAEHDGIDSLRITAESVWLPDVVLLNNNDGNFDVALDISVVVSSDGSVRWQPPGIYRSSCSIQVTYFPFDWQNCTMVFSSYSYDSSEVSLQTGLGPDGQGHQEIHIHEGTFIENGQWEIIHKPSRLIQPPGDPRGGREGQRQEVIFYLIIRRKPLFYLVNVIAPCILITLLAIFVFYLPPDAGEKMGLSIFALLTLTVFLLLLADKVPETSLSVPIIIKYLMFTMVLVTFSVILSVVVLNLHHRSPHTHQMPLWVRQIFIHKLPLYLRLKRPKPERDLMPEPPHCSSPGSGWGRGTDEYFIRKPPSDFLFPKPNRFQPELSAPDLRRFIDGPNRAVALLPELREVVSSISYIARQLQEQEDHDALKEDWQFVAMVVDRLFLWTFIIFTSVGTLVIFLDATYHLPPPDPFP
# Sequence (Q07001 22-517): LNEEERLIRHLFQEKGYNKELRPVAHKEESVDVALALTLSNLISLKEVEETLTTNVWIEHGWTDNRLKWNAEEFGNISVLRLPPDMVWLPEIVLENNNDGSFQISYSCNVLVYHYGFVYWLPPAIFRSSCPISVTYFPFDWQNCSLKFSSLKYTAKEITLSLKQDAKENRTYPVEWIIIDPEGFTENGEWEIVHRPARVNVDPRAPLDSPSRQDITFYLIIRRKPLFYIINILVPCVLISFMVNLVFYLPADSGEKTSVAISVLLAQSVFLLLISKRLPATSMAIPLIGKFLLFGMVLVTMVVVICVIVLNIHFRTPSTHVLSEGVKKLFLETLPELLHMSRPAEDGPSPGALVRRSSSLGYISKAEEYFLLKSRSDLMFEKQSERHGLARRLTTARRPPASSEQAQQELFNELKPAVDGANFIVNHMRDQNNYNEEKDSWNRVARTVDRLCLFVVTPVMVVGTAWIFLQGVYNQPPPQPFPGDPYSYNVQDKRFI
# assay-method-text: Nicotinic acetylcholine receptor antagonism assay, IONFlux automated patch clamp (Example 203)
# Type: cell-based
# condition-description: nAChR antagonism; ACh stimulated; patch clamp
Assign IC50 to each entry below.
Numbers only, in µM.

Solved entries:
CC(C)N(C)[C@@H]1CC[C@H](N2CC[C@H](Nc3ncnc4ccc(C(F)(F)F)cc34)C2=O)[C@H](NC(=O)[C@H]2C[C@@H](NC(=O)CCOCCOCCNC(=O)CCNC(=O)[C@H]3CC(=O)N(C)[C@@H]3c3cccnc3)C2)C1 [Example 49] = 80.3
CC(C)N(C)[C@@H]1CC[C@H](N2CC[C@H](Nc3ncnc4ccc(C(F)(F)F)cc34)C2=O)[C@H](NC(=O)C2CCC(NC(=O)CCOCCNC(=O)CCOCCNC(=O)[C@H]3CC(=O)N(C)[C@@H]3c3cccnc3)CC2)C1 (stereo partly shown) [Example 48] = 31.8
CC(C)N(C)[C@@H]1CC[C@H](N2CC[C@H](Nc3ncnc4ccc(C(F)(F)F)cc34)C2=O)[C@H](NC(=O)[C@H]2C[C@H](NC(=O)CCCO[C@H]3CC[C@H](OCCNC(=O)[C@H]4CC(=O)N(C)[C@@H]4c4cccnc4)CC3)C2)C1 [Example 8] = 47.2
CC(C)N(C)[C@@H]1CC[C@H](N2CC[C@H](Nc3ncnc4ccc(C(F)(F)F)cc34)C2=O)[C@H](NC(=O)CCOCCNC(=O)CCCO[C@H]2CC[C@H](OCCNC(=O)[C@H]3CC(=O)N(C)[C@@H]3c3cccnc3)CC2)C1 [Example 7] = 13.7
CC(C)N(C)[C@@H]1CC[C@H](N2CC[C@H](Nc3ncnc4ccc(C(F)(F)F)cc34)C2=O)[C@H](NC(=O)[C@H]2CC[C@@H](NC(=O)CCOCCOCCNC(=O)CNC(=O)[C@H]3CC(=O)N(C)[C@@H]3c3cccnc3)CC2)C1 [Example 63] = 38.5

Look up IC50 for the entries below, preserving their order.
1. CC(C)N(C)[C@@H]1CC[C@H](N2CC[C@H](Nc3ncnc4ccc(C(F)(F)F)cc34)C2=O)[C@H](NC(=O)CCCN2CCC3(CCN(CCCNC(=O)[C@H]4CC(=O)N(C)[C@@H]4c4cccnc4)CC3)CC2)C1 [Example 191]
2. CC(C)N(C)[C@@H]1CC[C@H](N2CC[C@H](Nc3ncnc4ccc(C(F)(F)F)cc34)C2=O)[C@H](NC(=O)[C@H]2CC[C@@H](NC(=O)CCOCCOCCOCCNC(=O)[C@H]3CC(=O)N(C)[C@@H]3c3cccnc3)CC2)C1 [Example 28]

## Result
[2.95, 40.9]

* * *

# target-or-system: human alpha1 nicotinic acetylcholine (nACh) receptor (Homo sapiens, UniProt P02708+Q07001)
# assay-method-text: Nicotinic acetylcholine receptor antagonism assay, IONFlux automated patch clamp (Example 203)
# Type: cell-based
# condition-description: maximum percentage antagonism at maximum concentration tested 100 μM; read-out: Maximum Response (%)
Give Emax at 100 µM for every item shown.
One number for each entry, in %.

# example entries with known answers
CC(C)N(C)[C@@H]1CC[C@H](N2CC[C@H](Nc3ncnc4ccc(C(F)(F)F)cc34)C2=O)[C@H](NC(=O)CCNC(=O)CCCOC[C@H]2CC[C@@H](COCCNC(=O)[C@H]3CC(=O)N(C)[C@@H]3c3cccnc3)CC2)C1 = 67.9
CC(C)N(C)[C@@H]1CC[C@H](N2CC[C@H](Nc3ncnc4ccc(C(F)(F)F)cc34)C2=O)[C@H](NC(=O)CCOCCC(=O)N[C@H]2C[C@H](C(=O)NCCOCCNC(=O)[C@H]3CC(=O)N(C)[C@@H]3c3cccnc3)C2)C1 = 63.7
CC(C)N(C)[C@@H]1CC[C@H](N2CC[C@H](Nc3ncnc4ccc(C(F)(F)F)cc34)C2=O)[C@H](NC(=O)CCOCCNC(=O)CCCO[C@H]2CC[C@H](OCCNC(=O)[C@H]3CC(=O)N(C)[C@@H]3c3cccnc3)CC2)C1 = 95

Next:
## Task Data request, read-out Emax at 100 µM, for CC(C)N(C)[C@@H]1CC[C@H](N2CC[C@H](Nc3ncnc4ccc(C(F)(F)F)cc34)C2=O)[C@H](NC(=O)CCOCCOCCNC(=O)CCOCCOCCNC(=O)[C@H]2CC(=O)N(C)[C@@H]2c2cccnc2)C1
## Result 67.7
